Data origin, for the record: BindingDB's records for doi:10.1016/j.bmc.2010.06.025

# target: D(3) dopamine receptor (Rattus norvegicus, UniProt P19020)
# Sequence (P19020 whole entry): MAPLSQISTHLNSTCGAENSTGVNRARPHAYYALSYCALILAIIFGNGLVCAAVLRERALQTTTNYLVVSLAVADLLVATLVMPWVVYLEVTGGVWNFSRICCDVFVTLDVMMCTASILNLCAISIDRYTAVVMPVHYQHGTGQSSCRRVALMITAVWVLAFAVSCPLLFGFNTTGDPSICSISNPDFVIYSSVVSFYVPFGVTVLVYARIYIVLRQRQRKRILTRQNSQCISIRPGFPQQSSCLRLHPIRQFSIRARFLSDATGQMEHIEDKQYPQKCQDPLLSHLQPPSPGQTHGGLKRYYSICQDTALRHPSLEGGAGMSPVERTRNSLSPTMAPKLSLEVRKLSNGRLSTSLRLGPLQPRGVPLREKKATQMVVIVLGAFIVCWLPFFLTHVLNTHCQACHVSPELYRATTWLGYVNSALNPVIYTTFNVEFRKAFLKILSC
attribute.measured: pKi
Numbers only, as −log10 of the molar value.

Data request: Any idea what pKi was measured for CCCN(CCN1CCN(c2ccc(-c3ccncc3)cc2)CC1)C1CCc2ccc(O)cc2C1 (stereo unspecified) ?
Data returned: 7.79
